# Test system: SNB-75 CNS
# protocol-summary: NCI tumour cell line growth inhibition, 48 h
Measured TGI of individual entries

Cc1cc(Cl)cc2c(N=Nc3ccccc3[N+](=O)[O-])c(O)[nH]c12
> 100 µM

IN: Supply TGI value. Item: N#Cc1c2c(c(Nc3cccc(C(F)(F)F)c3)n3c1nc1ccccc13)CCC2
OUT: > 100 µM

IN: Supply TGI value. Item: Cn1ccnc1C(=O)/C=C/c1ccc(C(=O)Nc2ccc(S(F)(F)(F)(F)F)cc2)cc1
OUT: > 14.3 µM

IN: Supply TGI value. Item: NC(=O)c1cccc(C2OC(COP(=O)(O)O)C(O)C2O)c1 (stereo unspecified)
OUT: > 50 µM

IN: Supply TGI value. Item: O=[N+]([O-])c1ccc2[nH]nc(OCc3ccccn3)c2c1
OUT: > 100 µM

IN: Supply TGI value. Item: COc1ccc(NC(=O)CC(=O)N2N=C(N(CCC#N)c3ccccc3Cl)CC2c2ccccc2)cc1 (stereo unspecified)
OUT: > 100 µM

IN: Supply TGI value. Item: Cc1ccccc1C1OC(=O)c2ccccc21 (stereo unspecified)
OUT: > 100 µM

IN: Supply TGI value. Item: COc1ccc(NC(=O)CC(=O)N2N=C(c3ccccc3)C(N=Nc3ccc(S(=O)(=O)CCOS(=O)(=O)O)cc3)C2=O)cc1 (stereo unspecified)
OUT: > 100 µM

IN: Supply TGI value. Item: CCOC(=O)/C(=N\OC)C(O)C(F)(F)F (stereo unspecified)
OUT: > 100 µM

IN: Supply TGI value. Item: CCOC(=O)c1sc2ncn(Cc3cccc(Br)c3)c(=O)c2c1C
OUT: > 100 µM

IN: Supply TGI value. Item: O=c1cc(-c2ccccc2)oc2cc(O)c(O)c(O)c12
OUT: > 100 µM

###

# Test system: SW-620 colon
# protocol-summary: NCI tumour cell line growth inhibition, 48 h
result-type: TGI

CN(C)CCN(C)CC1COC(C)(C)O1 (stereo not drawn)
> 100 µM

IN: # lookup: SW-620 colon TGI, key = Nc1nc(NCCO)c(N=O)c(=O)[nH]1
OUT: > 100 µM

IN: # lookup: SW-620 colon TGI, key = Cc1oc2c(C)c3oc(=O)cc(C)c3cc2c1CNC(=O)[C@@H]1OCCOCCOCCOCCOCCOC1C(=O)O (stereo partly drawn)
OUT: > 100 µM

IN: # lookup: SW-620 colon TGI, key = CC[O-].CC[O-].O=C([CH-]C(=O)c1cccnc1)c1ccccc1.O=C([CH-]C(=O)c1cccnc1)c1ccccc1.[Ti+4]
OUT: > 100 µM

IN: # lookup: SW-620 colon TGI, key = COC(=O)C1=C(C)NC(C)=C(C(=O)OC)C1/C=C(\Cl)c1ccc(Cl)c(Cl)c1
OUT: 28.7 µM

###

# Tested on: SW-620 colon
# protocol-summary: NCI tumour cell line growth inhibition, 48 h
result-type: GI50

O=c1c2ccccc2c(Br)c(Br)c2ccccc12
1.09 µM
CCC[CH2][Sn]([CH2]CCC)([O]C(=O)c1cc(F)ccc1F)[O][Sn]([CH2]CCC)([CH2]CCC)[O]C(=O)c1cc(F)ccc1F
0.116 µM
O=C1CC(c2cccc(O)c2)C2(C(=O)NC(=S)NC2=O)C(c2cccc(O)c2)C1 (stereo not drawn)
> 100 µM
CN(c1cc2ncc(=O)[nH]c2cc1NC(N)=NCc1ccc(Cl)cc1)C1CCCCC1
4.33 µM
N#Cc1ncc(-c2ccc(C(F)(F)F)cc2)c(NCc2cc(C(F)(F)F)cc(C(F)(F)F)c2)n1
3.13 µM

IN: Supply GI50 value. Item: COc1cc2c3c(n(CCCN(CCN)CCCn4c5c(c6cc(OC)c(OC)cc6c4=O)C(=O)c4cc6c(cc4-5)OCO6)c(=O)c2cc1OC)-c1cc2c(cc1C3=O)OCO2
OUT: 0.719 µM

IN: Supply GI50 value. Item: Fc1ccc(-c2nn3c(-c4ccc(F)c(Cl)c4)nnc3s2)cc1
OUT: > 50 µM

IN: Supply GI50 value. Item: COc1cc(-c2nc3sccn3c2-c2ccnc(NCCNS(=O)(=O)c3ccc(Cl)cc3)n2)ccc1F
OUT: 10.8 µM

IN: Supply GI50 value. Item: Cn1cc(C2=C(c3cn(CCO)c4ccccc34)C(=O)NC2=O)c2ccccc21
OUT: 1.21 µM

IN: Supply GI50 value. Item: [Cl][Sn]([Cl])([c]1ccccc1)[c]1ccccc1
OUT: 3.02 µM

IN: Supply GI50 value. Item: CC(C)(O)C#Cc1ccc(/C=C/C(=O)c2ccccc2)s1
OUT: 19.5 µM

IN: Supply GI50 value. Item: Cc1cc2cc3cc(C)c(N(C)C)cc3[n+](C)c2cc1N(C)C
OUT: 2.92 µM

IN: Supply GI50 value. Item: Oc1ccc(CN2CCC(N3CCOCC3)CC2)c2cccnc12
OUT: 60 µM

###

Measured TGI of individual entries
# Tested on: CCRF-CEM leukemia
# protocol-summary: NCI tumour cell line growth inhibition, 48 h

// worked examples, TGI included
O=C1N(c2ccccc2)C2(c3ccccc3)CC3CCCC13S2 (stereo not drawn)
> 100 µM
Cc1nc2c(n1C)C(=O)c1nc(CBr)[nH]c(=O)c1C2=O
> 100 µM

IN: Supply TGI value. Item: COC(=O)CC1C(COC(C)=O)OC(n2cc(C)c(=O)[nH]c2=O)C1OC(C)=O (stereo not drawn)
OUT: > 100 µM

###

# System: NCI-H460 lung
# protocol-summary: NCI tumour cell line growth inhibition, 48 h
Measured TGI of individual entries
Write it as a number; the unit µM goes unstated.

// worked examples, TGI included
Cc1cc2cc3cc(C)c(N(C)C)cc3[n+](C)c2cc1N(C)C
11
Cc1cccc2cc3c(ccc4ccccc43)c[n+]12
93.7
C/C=C1/CN2CCc3c([nH]c4ccccc34)[C@@H]2C[C@@H]1Cc1[nH]ccc2c1[nH]c1cc(=O)ccc12
64.4
COc1ccc(C2CC(c3cccc(Nc4ccncc4)c3)=NN2c2ccc(Cl)cc2)cc1 (centres undefined)
3.37

IN: Supply TGI value. Item: CC/C(=C(/c1ccc(OCCN(C)C)cc1)c1ccc(OC(=O)CCC(=O)c2c(C)[nH]c(/C=C3\N=C(c4ccc[nH]4)C=C3OC)c2C)cc1)c1ccccc1
OUT: 14.1

###

# System: NCI/ADR-RES ovarian
# protocol-summary: NCI tumour cell line growth inhibition, 48 h
result-type: TGI (µM)
Write it as a number; the unit µM goes unstated.

// worked examples, TGI included
O=c1cc(-c2ccccc2)oc2cc(O)c(O)c(O)c12
44.6
COC(=O)C1=C(C)NC(C)=C(C(=O)OC)C1/C=C(\Cl)c1ccc(Cl)c(Cl)c1
30.8
O=S(=O)(Cc1ccc(Cl)cc1Cl)c1ccc(Cl)cc1
3.59

# input for lookup
IN: # lookup: NCI/ADR-RES ovarian TGI, key = CN(c1cc2ncc(=O)[nH]c2cc1NC(N)=NCc1ccc(Cl)cc1)C1CCCCC1
OUT: 50

###

Measured TGI of individual entries
# Test system: RXF 393 renal
# protocol-summary: NCI tumour cell line growth inhibition, 48 h

// worked examples, TGI included
Cn1cc(C2=C(c3cccc(N)c3)C(=O)NC2=O)c2ccccc21
> 17.7 µM
O=[N+]([O-])c1ccccc1N=Nc1c(O)[nH]c2ccc(Br)cc12
> 47.5 µM
CC(=O)Oc1c(C)c2c(O)c3c1C1=C(OCOC1=C(C)C3=O)/C(C)=C\C(C)(O)C(O)C(C)C(O)C1C(=O)OC(C(C)C1O)C(C)(O)/C=C/C=C(C)C(=O)N2 (centres undefined)
70.4 µM

# input for lookup
IN: Supply TGI value. Item: Cc1ccc(NC(=O)Cc2ccc(/C=C/C(=O)c3ncc[nH]3)cc2)cc1
OUT: > 25 µM

###

Measured GI50 of individual entries
# Tested on: SF-268 CNS
# protocol-summary: NCI tumour cell line growth inhibition, 48 h

IN: # lookup: SF-268 CNS GI50, key = Cc1ccc2c(c1)c1nc3cc(C)c(C)cc3nc1n2CCN(C)C
OUT: 2.51 µM

IN: # lookup: SF-268 CNS GI50, key = CC(=O)N1N=C(c2ccc(Nc3nc(Nc4ccc(Cl)cc4)nc(Nc4ccc(Cl)cc4)n3)cc2)CC1c1ccc([N+](=O)[O-])cc1 (stereo not drawn)
OUT: 7.14 µM

IN: # lookup: SF-268 CNS GI50, key = CCCc1cc(O)c2c3c(c(=O)oc2c1)CN(C)CC3
OUT: > 100 µM

###

Measured TGI of individual entries
# Tested on: RXF 393 renal
# protocol-summary: NCI tumour cell line growth inhibition, 48 h

IN: Supply TGI value. Item: C=C1[C@H](OC(=O)C(C)C)[C@]23CC4(O)[C@@H]5[C@@]6(C)CCC[C@]57C([C@@H]2C[C@@]1(O)[C@H](O)[C@@H]73)N4C6
OUT: > 100 µM

IN: Supply TGI value. Item: CC(=O)c1c(SCCN2CCCC2)n(-c2ccccc2)c(=S)n(-c2ccccc2)c1=O
OUT: 5.63 µM

IN: Supply TGI value. Item: Nc1nc(N)c(Cn2ccnc2)c(=O)[nH]1
OUT: > 100 µM

Values from PubChem BioAssay (NCI)
